- System: HCT-116 colon
- Assay text: NCI-60 one-dose screen, 48 h (100 = growth as untreated, 0 = no growth, -100 = all killed)
- Stated conditions: 10 µM unless noted
About 83,000 compounds went through this panel and 20% of them were active in at least one assay; those are over-represented in the sample as a whole.
Readout name: growth (%)
API: value field is a number in %; no unit string.

These solved cases illustrate the format of a correct answer.
Cc1cc(-c2cc(OC(=O)c3ccccc3)ccc2Cl)cc2nnc(Nc3ccc(OCCN4CCCC4)cc3)nc12 | 55.5
CC(C)(C)c1nc(-c2cccc(NS(=O)(=O)c3c(F)cccc3F)c2F)c(-c2ccnc(N)n2)s1 | 48.1
NC1(C(=O)N[C@@H](CCO)c2ccc(Cl)cc2)CCN(c2ncnc3[nH]ccc23)CC1 | 45.7
COc1cc2c(cc1O)c(=O)n(CCN(C)C)c1c3cc4c(cc3ncc21)OCO4 | 2.63
CC(=O)Nc1cccc(-n2c(=O)n(C3CC3)c(=O)c3c(Nc4ccc(I)cc4F)n(C)c(=O)c(C)c32)c1 | 10.6
C[C@H](NC(=O)c1c(N)nn2cccnc12)c1cc2cccc(C#Cc3cnn(C)c3)c2c(=O)n1-c1ccccc1 | 1.33
CCc1nc2cc(/C=C/C(=O)NO)ccc2c(=O)n1CCc1ccc(OC)cc1 | 1.28
CC(C)c1cc(CNc2nc(Nc3cc(C4CC4)[nH]n3)cc(N3CCN(C)CC3)n2)on1 | 3.46

Recall the reported growth of "Cn1cc(-c2[nH]c3cc(NC(=O)[C@H](N)C4CCCCC4)cc4c3c2C=NNC4=O)cn1" when tested on HCT-116 colon.
-76

Recall the reported growth of "N#Cc1c(-c2ccc(Cl)cc2)csc1NC(=O)Nc1cccc(C(F)(F)F)c1" when tested on HCT-116 colon.
1.8

Recall the reported growth of "O=c1[nH]c([C@@H]2CCCN2)nc2c1oc1ccc(Cl)cc12" when tested on HCT-116 colon.
33.6

---

- System: OVCAR-5 ovarian
- Assay text: NCI-60 one-dose screen, 48 h
- Stated conditions: 10 µM unless noted
This is part of a sample that, as a whole, favours compounds with a hit. Of some 83,000 tested, about 20% had one in any assay. Activity calls are given as the source filed them. Rule for the calls: active = growth percent below 10; inactive = the rest.
Select the matching outcome among active, inactive

CCCNC(=O)c1cn2ncnc(Nc3cc(C(=O)NC4CC4)ccc3C)c2c1C | inactive
COc1ccc(-c2cc3c(C)nc(N)nc3n(C3CCC(OCCO)CC3)c2=O)cn1 (stereo not given) | active
CC(=O)c1c(C)c2cnc(Nc3ccc(N4CCNCC4)cn3)nc2n(C2CCCC2)c1=O | inactive
COc1cnc2c(c1)C(=O)c1c-2n(CCCN2CCC(N)CC2)c(=O)c2cc([N+](=O)[O-])ccc12 | inactive

Field: outcome | Entry: "CN1CCN(CCOc2cc(OC3CCOCC3)c3c(Nc4c(Cl)ccc5c4OCO5)ncnc3c2)CC1"
inactive

---

- Tested on: HS 578T breast
- Assay text: NCI-60 one-dose screen, 48 h (100 = growth as untreated, 0 = no growth, -100 = all killed)
- Stated conditions: 10 µM
This is part of a sample that, as a whole, favours compounds with a hit. Of some 83,000 tested, about 20% had one in any assay.
Each item that follows carries a reported growth.
API: value field is a number in %; no unit string.

O=C(NO)c1ccc(Cn2c(=O)n(CCc3ccccc3)c(=O)c3ccccc32)cc1 | 68.9
CCOc1ccc(N=C(C)Nc2ccc(OCC)cc2)cc1 | 106
CCc1nc2cc(/C=C/C(=O)NO)ccc2c(=O)n1CCc1ccc(F)cc1 | 52.6
Cc1c(N)ccc(-c2ccc(N)c(C)c2S(=O)(=O)O)c1S(=O)(=O)O | 106
Clc1ccc(C(Cn2ccnc2)OCc2ccsc2Cl)c(Cl)c1 (stereo unspecified) | 30.8

Switching to the query record.
Quote growth reported for "c1ccc2c(c1)CCN(NCCN1CCCC1)C2" please.
85.6
